Just for reference, ChEMBL document CHEMBL1795211 is where these values come from.

Kindly supply the reported IC50 values for the records listed here.
Molecular target: L-cysteine:1D-myo-inositol 2-amino-2-deoxy-alpha-D-glucopyranoside ligase (Mycobacterium tuberculosis)
Sequence (P9WJM9 whole entry): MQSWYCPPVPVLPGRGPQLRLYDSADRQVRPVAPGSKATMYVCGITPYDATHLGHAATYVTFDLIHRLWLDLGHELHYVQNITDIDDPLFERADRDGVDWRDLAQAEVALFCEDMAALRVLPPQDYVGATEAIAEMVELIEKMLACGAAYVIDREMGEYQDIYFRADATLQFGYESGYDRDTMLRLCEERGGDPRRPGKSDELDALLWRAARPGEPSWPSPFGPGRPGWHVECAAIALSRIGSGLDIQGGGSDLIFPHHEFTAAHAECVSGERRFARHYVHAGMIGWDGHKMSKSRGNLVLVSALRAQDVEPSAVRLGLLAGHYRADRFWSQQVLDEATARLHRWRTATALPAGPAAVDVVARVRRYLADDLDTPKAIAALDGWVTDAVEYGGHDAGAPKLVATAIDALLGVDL
Experiment: Inhibition of Mycobacterium tuberculosis recombinant MshC assessed as production of Cys-GlcN-Ins from cysteine by HPLC based fluorescence assay

Entry CN(CCCNC(=O)c1ccc2c(c1)N(Cc1cccc(Cl)c1)C(=O)c1ccccc1[S+]2[O-])C1CCCCC1 (racemic) has what IC50?
85 µM

Entry O=C(NCC1CCCN1)c1ccc2c(c1)N(Cc1cccc(Cl)c1)C(=O)c1ccccc1S2(=O)=O (stereo not drawn) has what IC50?
2500 µM

Entry CC1CC(C)CN(CCCNC(=O)c2ccc3c(c2)N(Cc2cccc(Cl)c2)C(=O)c2ccccc2[S+]3[O-])C1 (racemic) has what IC50?
500 µM
